Numbers sourced from PubChem BioAssay.

Test system: Lefty1
Measurement Notes: Lefty1 binders on small-molecule microarrays, primary screen, biochemical, small-molecule microarray, 635/667 nm fluorescence (AID 1139)
Experimental Parameters: small-molecule microarray binding, fluorescence 635/667; higher = more signal
// map composite z-score onto a label; ranges low-valued: < -0.007; mid-valued: ≥ -0.007 and < 0.9; high-valued: ≥ 0.9

Worked set:
Compound	Class Name
C#CCNC(/C=C/c1ccccc1)CO (stereo not given)	mid-valued
COCCOC(=O)N1C(=O)[C@@]2(c3cc(C#CCNC(N)=O)ccc31)[C@H](c1ccc(OCCO)cc1)N1[C@H](c3ccccc3)[C@H](c3ccccc3)OC(=O)[C@H]1[C@@H]2C(=O)N1CCCCCCC1	mid-valued
O=C1O[C@@H](c2ccccc2)[C@@H](c2ccccc2)N2[C@@H](c3ccc(O)cc3)[C@]3(C(=O)Nc4ccc(C#CC5(O)CCCCCC5)cc43)[C@@H](C(=O)Nc3nc4ccccc4s3)[C@H]12	high-valued
CO[C@H]1COC(=O)CC=C[C@@H](C)COC(=O)[C@@H](C)NC(=O)CC=C[C@@H]1C	high-valued

INPUT: Band of CO[C@H]1COC(=O)CC=C[C@H](C)COC(=O)[C@@H](OCc2ccccc2)C=C[C@@H]1C ?
OUTPUT: high-valued

INPUT: Band of Cc1ccc(S[C@]2(C(=O)O)CC(=O)N(Cc3ccccc3)[C@@H]2c2ccc(CO)cc2)cc1 ?
OUTPUT: low-valued

INPUT: Band of COC(=O)c1ccc(C#CC(NP(=O)(c2ccccc2)c2ccccc2)c2ccccc2)cc1 (stereo not given) ?
OUTPUT: mid-valued

INPUT: Band of C[C@H]1C2[C@H](Cc3ccccc3)NC(=O)[C@]23C(=O)N[C@H](Cc2ccccc2)C(=O)N[C@@H](Cc2ccccc2)C(=O)NC/C=C\C/C=C/C3[C@@H]2O[C@]12C (stereo not given in full) ?
OUTPUT: mid-valued

INPUT: Band of C=C(CCCC)C(=O)CC[C@@H](OC(C)=O)c1ccccc1OCCO ?
OUTPUT: low-valued

INPUT: Band of COc1ccc(CCN2C(=O)[C@@]3(c4ccc([N+](=O)[O-])cc4)CC(=O)N(CC45CC6CC(CC(C6)C4)C5)[C@@H]3c3ccc(CO)cc32)cc1 ?
OUTPUT: low-valued

INPUT: Band of CCCNC(=O)[C@@]1(Sc2ccc(C)cc2)CC(=O)N(Cc2ccccc2Cl)[C@@H]1c1ccc(CO)cc1 ?
OUTPUT: high-valued

INPUT: Band of COC(=O)[C@@]1(Cc2ccccc2)[C@H]2c3cc(C(=O)N4CCCC4)n(CCN4CNCC4=O)c3C[C@H]2CN1C(=O)c1ccccc1 ?
OUTPUT: low-valued

INPUT: Band of C[N+](C)(C)CCCCNC(=O)[C@@H]1C[C@@H]2C(=O)N3CCC[C@H]3C(=O)N2[C@@H]1c1cccc(OCCO)c1 ?
OUTPUT: mid-valued

INPUT: Band of CCOC(=O)C1=CC[C@@H](c2ccccc2)N(S(=O)(=O)c2ccc(C)cc2)[C@H]1C ?
OUTPUT: mid-valued

INPUT: Band of CCCC=C(CCC)[C@@H](NC(=O)c1ccc(C(F)(F)F)cc1)c1ccccc1 ?
OUTPUT: mid-valued
